- experiment_summary: Cmax in mouse at 10 mg/kg, po
- Format: ADME, organism-based
- Set-up: dose 10 mg/kg, route oral
- test_parameters: in vivo
readout_name: Cmax (µM)

                            smiles_notation  readout_name  observed_result
0  C[C@]1(CO)Cc2cc(NC(=O)c3cnn4cccnc34)c(N3CCOCC3)cc2O1          Cmax              5.4
1  O=C(Nc1cc2sc(N3CCOCC3)nc2cc1N1CCOCC1)c1cnn2cccnc12          Cmax              1.3

---

# pKi listing for each entry below
- experimental_system: Interleukin-1 receptor-associated kinase 1 (Homo sapiens, UniProt P51617)
- Sequence (P51617 whole entry): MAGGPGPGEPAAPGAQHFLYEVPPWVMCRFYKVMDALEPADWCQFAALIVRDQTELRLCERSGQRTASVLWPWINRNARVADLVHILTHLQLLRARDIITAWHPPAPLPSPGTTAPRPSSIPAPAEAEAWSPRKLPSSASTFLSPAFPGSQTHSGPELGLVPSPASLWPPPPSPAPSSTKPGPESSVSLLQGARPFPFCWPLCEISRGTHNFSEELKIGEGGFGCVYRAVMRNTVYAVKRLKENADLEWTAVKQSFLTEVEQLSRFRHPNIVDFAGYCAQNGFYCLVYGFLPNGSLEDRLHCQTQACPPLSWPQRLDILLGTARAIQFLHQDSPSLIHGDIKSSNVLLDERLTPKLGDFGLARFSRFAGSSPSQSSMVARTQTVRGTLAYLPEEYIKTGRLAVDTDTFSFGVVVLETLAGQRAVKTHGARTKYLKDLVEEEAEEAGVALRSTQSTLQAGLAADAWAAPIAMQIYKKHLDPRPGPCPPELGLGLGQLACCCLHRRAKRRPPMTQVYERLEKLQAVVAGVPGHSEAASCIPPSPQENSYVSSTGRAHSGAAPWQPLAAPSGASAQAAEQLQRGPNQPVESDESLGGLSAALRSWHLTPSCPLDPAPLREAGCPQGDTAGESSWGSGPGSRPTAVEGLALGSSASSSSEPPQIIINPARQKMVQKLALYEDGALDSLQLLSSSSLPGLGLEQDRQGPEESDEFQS
- experiment_summary: Inhibition of human recombinant full length N-terminal His6-tagged IRAK1 (Argl94 to Ser712 residues) expressed in insect cells using H-KKARFSRFAGSSPSQSSMVAR as substrate incubated for 60 mins by fluorescence polarisation assay
pKi: −log10 of the molar value.
readout_name: pKi

>>> df
                            smiles_notation  bound_type  observed_result
0       COc1cc2ncccc2cc1NC(=O)c1cnn2cccnc12           =             5.55
1  O=C(Nc1cc2[nH]cnc2cc1N1CCC(CO)CC1)c1cnn2cccnc12           <             5.24
2  CCn1c(N2CCOCC2)nc2cc(N3CCC(CO)CC3)c(NC(=O)c3cnn4cccnc34)cc21           <             5.00
3  O=C(Nc1cc2cnc(N3CCOCC3)nc2cc1N1CCCCC1)c1cnn2cccnc12           =             5.27
4  Cn1c(N2CCOCC2)nc2cc(N3CCC(CO)CC3)c(NC(=O)c3cnn4cccnc34)cc21           <             5.21
5  CN(C)c1ccc2cc(NC(=O)c3cnn4cccnc34)c(N3CCCCC3)cc2n1           =             6.30
6  O=C(Nc1cc2sc(N3CCOCC3)nc2cc1N1CCC(CO)CC1)c1cnn2cccnc12           =             7.62
7  O=C(Nc1cc2oc(N3CCOCC3)nc2cc1N1CCC(CO)CC1)c1cnn2cccnc12           =             6.47
8  CN(C)c1nc2cc(N3CCC(CO)CC3)c(NC(=O)c3cnn4cccnc34)cc2s1           =             7.02
9  O=C(Nc1cc2sc(N3CCOCC3)nc2cc1N1CCOCC1)c1cnn2cccnc12           =             6.72

---

- experiment_summary: Apparent permeability from apical to basolateral side in MDCK cells at 10 uM incubated for 180 mins and measured up to 180 min by LC-MS/MS analysis
- Assay type: ADME, cell-based, Canis lupus familiaris
- test_parameters: dog
readout_name: Papp A→B at 3 h, 10 µM

In [3]: df
Out[3]:
                            smiles_notation            readout_name  observed_result
0  CC1(C)Cc2cc(NC(=O)c3cnn4cc(OC(F)F)cnc34)c(N3CCOCC3)cc2O1  Papp A→B at 3 h, 10 µM           6 nm/s
1  Cn1c(N2CCOCC2)nc2cc(N3CCC(CO)CC3)c(NC(=O)c3cnn4cccnc34)cc21  Papp A→B at 3 h, 10 µM          24 nm/s
2  C[C@]1(CO)Cc2cc(NC(=O)c3cnn4cccnc34)c(N3CCOCC3)cc2O1  Papp A→B at 3 h, 10 µM         150 nm/s
3  CC(C)(O)[C@]1(C)Cc2cc(NC(=O)c3cnn4cccnc34)c(N3CCOCC3)cc2O1  Papp A→B at 3 h, 10 µM         210 nm/s
4  CN1CCC2(CC1)Cc1cc(NC(=O)c3cnn4cccnc34)c(N3CCOCC3)cc1O2  Papp A→B at 3 h, 10 µM         130 nm/s
5  O=C(Nc1cc2sc(N3CCOCC3)nc2cc1N1CCOCC1)c1cnn2cccnc12  Papp A→B at 3 h, 10 µM         120 nm/s
6  CC1(C)Cc2cc(NC(=O)c3cnn4cc(O)cnc34)c(N3CCOCC3)cc2O1  Papp A→B at 3 h, 10 µM         140 nm/s
7  C[C@@]1(CO)Cc2cc(NC(=O)c3cnn4cccnc34)c(N3CCOCC3)cc2O1  Papp A→B at 3 h, 10 µM         270 nm/s
8  CNC(=O)CN1CCN(c2cc3c(cc2NC(=O)c2cnn4cccnc24)CC(C)(C)O3)CC1  Papp A→B at 3 h, 10 µM         130 nm/s
